Cited source: the supplement of paper PMC6522484

# System: DLD1
# ASSAY: TCF/Wnt firefly luciferase reporter signal relative to plate median (fraction of plate median); higher = higher Wnt reporter signal
# RECORDED_CONDITIONS: 10 µM; treatment time 24 h; reporter: TCF4/Wnt
Counter-ions that a name gives are not always drawn.
# binning rule on TCF/Wnt firefly luciferase reporter signal: lowest = under 0.8, middle = from 0.8 up to 1, highest = 1 and over

- COMPOUND: "CCS(=O)(=O)Nc1ccc2c(c1)/C(=C(/Nc1ccc(CN3CCCCC3)cc1)c1ccccc1)C(=O)N2"
  GROUP_LABEL: "middle"
- COMPOUND: "COc1cc(OC)c(/C=C/S(=O)(=O)Cc2ccc(OC)c(NCC(=O)O)c2)c(OC)c1"
  GROUP_LABEL: "lowest"
- COMPOUND: "O=C(NOCC1CC1)c1ccc(F)c(F)c1Nc1ccc(I)cc1Cl"
  GROUP_LABEL: "highest"
- COMPOUND: "COc1cc2nccc(Oc3ccc(NC(=O)C4(C(=O)Nc5ccc(F)cc5)CC4)cc3)c2cc1OC [XL-184 free base (Cabozantinib)]"
  GROUP_LABEL: "middle"
- COMPOUND: "CS(=O)(=O)N1CCN(Cc2cc3nc(-c4cccc5[nH]ncc45)nc(N4CCOCC4)c3s2)CC1"
  GROUP_LABEL: "middle"
- COMPOUND: "Cc1ccc([N+](=O)[O-])cc1S(=O)(=O)N(C)/N=C/c1cnc2ccc(Br)cn12"
  GROUP_LABEL: "lowest"
- COMPOUND: "Cn1cc(-c2ccc3nnc(C(F)(F)c4ccc5ncccc5c4)n3n2)cn1"
  GROUP_LABEL: "highest"
- COMPOUND: "COc1cc2nccc(Oc3ccc(NC(=O)Nc4cc(C)on4)c(Cl)c3)c2cc1OC"
  GROUP_LABEL: "lowest"
- COMPOUND: "O=C(Nc1cccc(Nc2ncc(Br)c(NCCc3cnc[nH]3)n2)c1)N1CCCC1"
  GROUP_LABEL: "highest"
- COMPOUND: "Nc1ncnc2c1c(-c1cccc(OCc3ccccc3)c1)cn2C1CC(CN2CCCC2)C1 (stereo unspecified)"
  GROUP_LABEL: "lowest"
- COMPOUND: "Nc1nccc(Oc2ccc(NC(=O)c3c[nH]cc(-c4ccc(F)cc4)c3=O)cc2F)c1Cl"
  GROUP_LABEL: "middle"
- COMPOUND: "Clc1ccc(Nc2nnc(Cc3ccncc3)c3ccccc23)cc1 [Vatalanib dihydrochloride (PTK787)]"
  GROUP_LABEL: "middle"
- COMPOUND: "CO[C@H]1C[C@@H]2CC[C@@H](C)[C@@](O)(O2)C(=O)C(=O)N2CCCC[C@H]2C(=O)O[C@H]([C@H](C)C[C@@H]2CC[C@@H](O)[C@H](OC)C2)CC(=O)[C@H](C)/C=C(\\C)[C@@H](O)[C@@H](OC)C(=O)[C@H](C)C[C@H](C)/C=C/C=C/C=C/1C [Rapamycin (Sirolimus)]"
  GROUP_LABEL: "highest"
- COMPOUND: "COc1cc2ncnc(Nc3ccc(F)c(Cl)c3)c2cc1NC(=O)/C=C/CN1CCCCC1"
  GROUP_LABEL: "lowest"
- COMPOUND: "CNC(=O)c1cccc(-c2ccc3c(N4CCOC[C@@H]4C)nc(N4CCOC[C@@H]4C)nc3n2)c1"
  GROUP_LABEL: "lowest"
- COMPOUND: "O=C(NC[C@H](O)CO)c1ccncc1Nc1ccc(I)cc1F"
  GROUP_LABEL: "highest"
